Each recorded value in this set is attributed to patent US8663646B2.

Target or test system: HLA-A*1101 (Homo sapiens, UniProt P04439, A114D/D185E/E176A/F33Y/L180Q/S129P/T187R)
Construct: B-cell lines used are: CAA (A*0101), EKR (A*0301), BVR (A*1101), VIJF (A*2401); endogenous in cells; host or cells: B-cell line BVR
Assay protocol: Competition based cellular binding assay, HLA-A*1101 (B-cell line BVR)
Where no end group is shown, it is not given here.
Measurement name: IC50

Param item = GQSTSRHKK [p53 374-382] ; retrieve measured IC50.
5 to 15 µM

* * *

Target or test system: HLA-A*0301 (Homo sapiens)
Construct: B-cell lines used are: CAA (A*0101), EKR (A*0301), BVR (A*1101), VIJF (A*2401); endogenous in cells; host or cells: B-cell line EKR
Assay protocol: Competition based cellular binding assay, HLA-A*0301 (B-cell line EKR)
Recorded conditions: HLA type A3
Where no end group is shown, it is not given here.
Measurement name: HLA binding Affinity (Table 5)

Use the examples below as a reference point.
LGFLHSGTAK [p53 111-120] = high
GFLHSGTAK [p53 112-120] = int
GGSRAHSSHLK [p53 360-370] = int
RAHSSHLKSK [p53 363-372] = int
GSRAHSSHLK [p53 361-370] = high
KGQSTSRHK [p53 373-381] = int

Param item = RVRAMAIY [p53 156-163] ; retrieve measured HLA binding Affinity (Table 5).
int

* * *

Target or test system: HLA-A*1101 (Homo sapiens, UniProt P04439, A114D/D185E/E176A/F33Y/L180Q/S129P/T187R)
Construct: B-cell lines used are: CAA (A*0101), EKR (A*0301), BVR (A*1101), VIJF (A*2401); endogenous in cells; host or cells: B-cell line BVR
Assay protocol: Competition based cellular binding assay, HLA-A*1101 (B-cell line BVR)
Recorded conditions: HLA type A11
Measurement name: HLA binding Affinity (Table 5)

C[C@@H](O)[C@H](NC(=O)[C@@H](N)CC(N)=O)C(=O)N[C@@H](CO)C(=O)N[C@@H](CO)C(=O)N[C@@H](CO)C(=O)N1CCC[C@H]1C(=O)N[C@@H](CCC(N)=O)C(=O)N1CCC[C@H]1C(=O)N[C@@H](CCCCN)C(=O)O = high
C[C@@H](O)[C@H](NC(=O)[C@@H](N)CC(N)=O)C(=O)N[C@@H](CO)C(=O)N[C@@H](CO)C(=O)N[C@@H](CO)C(=O)N1CCC[C@H]1C(=O)N[C@@H](CCC(N)=O)C(=O)N1CCC[C@H]1C(=O)N[C@@H](CCCCN)C(=O)N[C@@H](CCCCN)C(=O)O = high
CC(C)C[C@H](NC(=O)[C@H](Cc1c[nH]cn1)NC(=O)[C@H](CO)NC(=O)[C@H](CO)NC(=O)[C@H](Cc1c[nH]cn1)NC(=O)[C@H](C)NC(=O)[C@@H](N)CCCNC(=N)N)C(=O)N[C@@H](CCCCN)C(=O)O = int
C[C@@H](O)[C@H](N)C(=O)N[C@@H](CO)C(=O)N[C@@H](CO)C(=O)N[C@@H](CO)C(=O)N1CCC[C@H]1C(=O)N[C@@H](CCC(N)=O)C(=O)N1CCC[C@H]1C(=O)N[C@@H](CCCCN)C(=O)O = high
